Origin of measurements: patent US20200369772A1

Molecular target: T1, human PD-L2 (full-length, on cells) (human, UniProt Q9BQ51 20-273)
T1 chain: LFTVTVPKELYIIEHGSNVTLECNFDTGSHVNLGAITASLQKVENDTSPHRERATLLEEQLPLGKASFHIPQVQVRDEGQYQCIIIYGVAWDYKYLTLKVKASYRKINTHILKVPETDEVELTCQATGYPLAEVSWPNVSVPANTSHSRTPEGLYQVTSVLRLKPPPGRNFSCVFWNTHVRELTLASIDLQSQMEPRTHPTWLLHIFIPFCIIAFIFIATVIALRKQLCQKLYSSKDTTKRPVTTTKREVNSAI
Test: FACS, NCI-H226 cells
readout_name: pEC50
Recall that pEC50 is obtained by taking minus log10 of the concentration measured in molar.

Query block: Find the recorded pEC50 belonging to 10D1-G1 (antibody, V domains shown, Both formats under this entry) VH: QVQLQESGPGLVKPSGTLSLTCAVSGGSISSSYWWSWVRQPPGKGLEWIGEIFHIGSTNYNPSLRSRVTISVVKSKNQFSLNLNSVTAADTAVYFCARVSGGYGYFSGMDVWGQGTTVTVSS VL: DIQMTQSPSSLSASVGDRVTITCRASQGIRNDLGWYQQKPGKAPKRLIYGASSLQSGVPSRFSGSGSGTEFTLTISSLQPEDFATYYCLQHNSYPRTFGQGTKVEIK and report it.
Result block: 9.83

Query block: Find the recorded pEC50 belonging to 10A9-D2 (antibody, V domains shown, Both formats under this entry) VH: QVQLQESGPGLVKPSETLSLTCAVSGGSISSSYWWSWVRQPPGKGLEWVGEVFHVGVTNYNPSLKSRVTISVDKSKNQFSLKLTSVTAADTAVYYCARVTGTTGYYHGLDVWGQGTTVTVFS VL: DIQMTQSPSSLSASVGDRVTITCRASQGIRNDLGWYQQKPGKVPKRLIYAASSLQSGIPSRFSGSGSGTEFTLTISSLQPEDFATYYCLQHNNYPRTFGQGTKVEIK and report it.
Result block: 10.11

Query block: Find the recorded pEC50 belonging to 12A1-D4 (antibody, V domains shown, Both formats under this entry) VH: QVQLQESGPGLVKPSGTLSLTCAVSGGSISSNNWWSWVRQPPGKGLEWIGEIFHVGSTNYNPSLKSRVTISVDKSKNQFSLKLSSLTAADTAVYYCARMVGATGHYYGMDVWGQGTTVTVSS VL: DIQLTQSPSFLSASVGDRVTITCRASQGISSSLAWYQQKPGKAPKFLIYAASTLQSGVPSRFSGSGSGTEFTLTISSLQPEDFATYYCQQLNSYPKSWTFGQGTKVEIK and report it.
Result block: 10.00
